Source of measurements: paper PMC7265341

Molecular target: CDK3/Cyclin E1 (Homo sapiens)
Sequence (Q00526 whole entry): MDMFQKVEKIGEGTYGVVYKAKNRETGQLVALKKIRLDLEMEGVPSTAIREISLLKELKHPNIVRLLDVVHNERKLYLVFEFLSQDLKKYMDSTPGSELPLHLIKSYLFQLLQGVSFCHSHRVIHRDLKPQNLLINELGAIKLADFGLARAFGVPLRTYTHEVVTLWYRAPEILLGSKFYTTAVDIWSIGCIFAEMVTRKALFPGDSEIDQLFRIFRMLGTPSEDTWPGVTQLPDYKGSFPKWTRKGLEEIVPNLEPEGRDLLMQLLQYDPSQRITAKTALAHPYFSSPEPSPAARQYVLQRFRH
Sequence (P24864 whole entry partner): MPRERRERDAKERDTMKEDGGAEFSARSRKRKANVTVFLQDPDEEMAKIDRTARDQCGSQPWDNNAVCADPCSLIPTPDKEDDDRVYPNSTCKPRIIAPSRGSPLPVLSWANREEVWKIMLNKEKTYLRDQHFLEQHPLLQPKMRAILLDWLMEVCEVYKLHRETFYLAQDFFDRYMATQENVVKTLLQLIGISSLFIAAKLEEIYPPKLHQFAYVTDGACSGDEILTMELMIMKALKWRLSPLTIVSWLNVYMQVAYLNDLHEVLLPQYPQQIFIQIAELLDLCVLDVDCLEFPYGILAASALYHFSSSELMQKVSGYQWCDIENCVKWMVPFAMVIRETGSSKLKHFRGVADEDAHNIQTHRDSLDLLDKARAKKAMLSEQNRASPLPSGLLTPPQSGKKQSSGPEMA
Assay: NanoBRET live-cell target engagement, CDK3-NanoLuc/Cyclin E1 in HEK-293
Assay type: binding
Settings: CDK3/E1; read-out: IC50 (nM) Replicate 3
metric name: IC50 (nM)

>>> value_measured("CCCCOc1c(C(=O)c2c(F)cc(C)cc2F)c[nH]c2nncc1-2")
9.2

---

Biological target: CDK13/Cyclin K (Homo sapiens, UniProt Q14004)
Sequence (O75909 whole entry): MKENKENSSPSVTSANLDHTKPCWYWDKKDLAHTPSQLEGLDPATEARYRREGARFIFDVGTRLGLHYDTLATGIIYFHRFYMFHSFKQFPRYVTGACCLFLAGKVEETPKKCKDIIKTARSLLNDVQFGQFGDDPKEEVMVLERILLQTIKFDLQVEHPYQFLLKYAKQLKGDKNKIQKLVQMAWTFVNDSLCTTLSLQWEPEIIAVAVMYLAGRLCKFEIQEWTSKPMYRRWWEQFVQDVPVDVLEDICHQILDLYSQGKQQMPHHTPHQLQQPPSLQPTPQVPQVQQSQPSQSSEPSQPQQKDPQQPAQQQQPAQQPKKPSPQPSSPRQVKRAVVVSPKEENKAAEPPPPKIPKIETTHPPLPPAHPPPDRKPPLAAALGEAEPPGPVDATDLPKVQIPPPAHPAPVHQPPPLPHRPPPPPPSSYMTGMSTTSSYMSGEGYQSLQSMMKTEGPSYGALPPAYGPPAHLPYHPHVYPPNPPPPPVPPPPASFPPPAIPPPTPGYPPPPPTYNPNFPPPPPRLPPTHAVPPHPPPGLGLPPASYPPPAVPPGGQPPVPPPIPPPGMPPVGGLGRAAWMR
Sequence (Q14004 other isoform, or with tags, fused parts or gaps): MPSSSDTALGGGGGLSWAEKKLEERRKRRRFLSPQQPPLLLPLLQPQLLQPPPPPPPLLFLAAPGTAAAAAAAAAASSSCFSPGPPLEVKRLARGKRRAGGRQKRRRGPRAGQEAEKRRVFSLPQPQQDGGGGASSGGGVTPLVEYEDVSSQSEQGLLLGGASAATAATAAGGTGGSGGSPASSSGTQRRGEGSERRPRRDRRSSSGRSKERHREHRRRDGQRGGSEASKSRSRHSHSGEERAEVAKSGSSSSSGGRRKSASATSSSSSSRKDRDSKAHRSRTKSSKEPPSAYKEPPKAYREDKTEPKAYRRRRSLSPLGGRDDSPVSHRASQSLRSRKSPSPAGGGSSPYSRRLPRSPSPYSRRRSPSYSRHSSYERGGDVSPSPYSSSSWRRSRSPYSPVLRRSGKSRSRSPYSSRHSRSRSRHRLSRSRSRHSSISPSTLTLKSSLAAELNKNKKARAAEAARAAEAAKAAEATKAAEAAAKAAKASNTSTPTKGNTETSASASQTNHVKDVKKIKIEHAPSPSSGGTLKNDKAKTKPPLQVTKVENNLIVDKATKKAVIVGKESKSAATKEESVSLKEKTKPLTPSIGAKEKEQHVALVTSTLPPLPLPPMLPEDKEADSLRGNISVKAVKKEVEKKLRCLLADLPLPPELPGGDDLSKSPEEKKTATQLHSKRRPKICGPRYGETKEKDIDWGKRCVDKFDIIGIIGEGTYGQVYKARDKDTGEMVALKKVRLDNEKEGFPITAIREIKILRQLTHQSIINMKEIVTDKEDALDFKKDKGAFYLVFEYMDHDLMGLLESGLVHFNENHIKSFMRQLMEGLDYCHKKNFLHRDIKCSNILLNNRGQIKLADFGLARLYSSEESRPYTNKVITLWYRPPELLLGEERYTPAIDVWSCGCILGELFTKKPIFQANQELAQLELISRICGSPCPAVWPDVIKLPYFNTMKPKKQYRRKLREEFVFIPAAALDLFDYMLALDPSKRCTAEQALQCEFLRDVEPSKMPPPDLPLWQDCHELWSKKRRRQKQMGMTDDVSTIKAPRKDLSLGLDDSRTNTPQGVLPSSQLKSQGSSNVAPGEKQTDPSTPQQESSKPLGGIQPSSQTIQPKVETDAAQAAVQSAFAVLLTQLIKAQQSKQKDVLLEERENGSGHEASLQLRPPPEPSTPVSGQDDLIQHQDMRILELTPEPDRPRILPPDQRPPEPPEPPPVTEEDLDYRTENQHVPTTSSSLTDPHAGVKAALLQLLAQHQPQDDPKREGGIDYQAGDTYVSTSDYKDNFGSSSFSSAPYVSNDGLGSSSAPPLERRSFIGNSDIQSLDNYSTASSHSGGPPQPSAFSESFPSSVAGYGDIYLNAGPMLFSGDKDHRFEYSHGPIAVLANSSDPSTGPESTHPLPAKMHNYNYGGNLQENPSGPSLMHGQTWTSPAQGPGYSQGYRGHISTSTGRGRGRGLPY
Assay: NanoBRET live-cell target engagement, CDK13-NanoLuc/Cyclin K in HEK-293
Assay type: binding
Details: 10µM; independent experiment 1
Collected CDK13/K Inhibition at 10µM (%) values appear next to each entry.
metric name: CDK13/K Inhibition at 10µM (%)

>>> value_measured("CN(C)C/C=C/C(=O)Nc1ccc(C(=O)Nc2cccc(Nc3ncc(Cl)c(-c4c[nH]c5ccccc45)n3)c2)cc1")
"34.3%"
>>> value_measured("O=C1NC(=NCc2cccs2)S/C1=C\\c1ccc2ncccc2c1")
"3.3%"
>>> value_measured("Cc1c(Br)c(Br)c2c3c1nc(N1CCNCC1)n3CCC2.Cl [SEL 120-34A]")
"29.4%"
>>> value_measured("O=C1NCCc2[nH]c(-c3ccncc3)cc21")
"14.1%"
